System: H1650
TEST_METHOD_NOTES: Non Small Cell Lung Cancer proliferation assay (Alamar Blue reduction), H1650
Format: cell-based, human
TEST_CONTEXT: Homo sapiens, NCI-H1650; primary screening; 10 μM compound in 1% DMSO (v/v); read-out: percentage inhibition H1650
OBSERVABLE: inhibition at 10 µM (%)

• Cc1ccc(-n2nc(C#N)c(-c3ccccc3)c(C#N)c2=O)cc1 [compound 224358] = -4
• O=c1c(SCc2ccccc2)c(SC2CCCCO2)cnn1-c1ccccc1 (centres unmarked) [compound 182828] = 25
• CSc1cnn(-c2ccccc2)c(=O)c1SCc1ccccc1 [compound 224764] = 21
• CCCOc1cnn(-c2ccccc2)c(=O)c1Cl [compound 179389] = -3
• COc1cnn(-c2cccc(C)c2)c(=O)c1Cl [compound 104325] = -31
• CC(C)Oc1c(S)cnn(-c2ccccc2)c1=O [compound 213495] = 4
• CCOC(=O)NCCOc1cnn(-c2ccccc2)c(=O)c1Cl [compound 201622] = 5
• CSc1cnn(-c2ccccc2)c(=O)c1Cl [compound 104185] = -9
• O=C(COc1cnn(-c2ccccc2)c(=O)c1Cl)c1ccccc1 [compound 199759] = 16
• CC(=O)N(C(C)=O)c1c(Cl)cnn(-c2ccccc2)c1=O [compound 187116] = 31
• Cc1cc(N(C)C)c(=O)n(-c2ccccc2)n1 [compound 189015] = 21
